Values from the Human Domainome abundance scans (Beltran et al. 2025)

B1: Transcription factor SOX-11, residues 50 to 117; numbered along this chain, P35716 (parent)
chain: KRPMNAFMVWSKIERRKIMEQSPDMHNAEISKRLGKRWKMLKDSEKIPFIREAERLRLKHMADYPDYK

Variants of: B1
Test: abundance fitness (aPCA) (normalised: wild type 0, dead -1); higher = more abundant; growth selection in yeast, the domain comes from the species named
Details: Homo sapiens
Each entry falls in a class defined on abundance fitness; the bands are low end: < -0.5; middle: ≥ -0.5 and < -0.2; high end: ≥ -0.2

K32E | high end
D24M | low end
E29Y | low end
Q21M | middle
R37Q | high end
K42R | middle
E45W | middle
L34M | low end
G35A | high end
L41V | low end
R37W | middle
R33L | high end
S22A | high end
K46C | low end
R37F | low end
L41H | low end
I47P | low end
E45L | middle
E20P | low end
I47H | middle
L41S | low end
E45V | middle
M25S | low end
S44T | middle
K42H | middle
S31A | high end
M25G | low end
D43C | middle
G35S | high end
S31Q | middle
M25E | low end
S22H | high end
K32L | high end
W38A | low end
D24Q | high end
L34S | low end
M40F | middle
Q21R | middle
A28H | high end
A28Q | middle
H26C | high end
L41W | low end
H26D | high end
R37E | high end
R37N | high end
D43P | high end
H26M | high end
E20Y | low end
S44H | high end
S44C | high end
M25R | low end
S31G | middle
W38P | low end
N27Y | middle
W38C | low end
M40H | high end
K39Q | high end
K42M | high end
I30K | low end
S44R | middle
M25Q | low end
Q21K | middle
L41P | low end
G35R | high end
K39H | middle
S22M | middle
E29K | middle
R55G | middle
L41I | low end
E20R | low end
M40D | high end
K42L | middle
